pEC50 by entry:
system: sonic hedgehog pathway; assay: Human hedgehog reporter assay Daoy-GliLuc (DGL); type: cell-based; settings: Daoy human medulloblastoma cells, gli-luciferase reporter; read-out: Daoy Avg. EC50
pEC50: −log10 of the molar value. Structures can show the parent of a compound that is named as a salt.
Attribute measured: pEC50

molecule=CN[C@H]1CC[C@@H](N(Cc2cc(-c3ccc(CO)cc3)ccc2OC)C(=O)c2sc3c(C)ccc(C)c3c2Cl)CC1 reported_result="> 7.30"
molecule="CNC1CCC(N(Cc2cc(-c3cnccn3)ccc2OC)C(=O)c2sc3c(F)ccc(F)c3c2Cl)CC1 (stereo not drawn) [Compound 344 (R14), dihydrochloride]" reported_result="> 7.30"
molecule="CNC1CCC(N(Cc2cc(-c3ccccc3SC)ccc2OC)C(=O)c2sc3c(F)ccc(F)c3c2Cl)CC1 (stereo not drawn) [Compound 408, hydrochloride]" reported_result="6.00 to 6.60"
molecule="CCOc1ccc(-c2cccc(C#N)c2)cc1CN(C(=O)c1sc2ccccc2c1Cl)C1CCC(NC)CC1 (stereo not drawn) [Compound 328, hydrochloride]" reported_result="> 7.30"
molecule="CN[C@H]1CC[C@H](N(Cc2cc(-c3cccc(C(C)=O)c3)ccc2OC)C(=O)c2sc3cccc(F)c3c2Cl)CC1 [Compound 363, hydrochloride]" reported_result="> 7.30"
molecule="CNC1CCC(N(Cc2cc(-c3cncnc3)ccc2OC)C(=O)c2sc3ccccc3c2Cl)CC1 (stereo not drawn) [Compound 324 (R20), dihydrochloride]" reported_result="> 7.30"

---

test system: sonic hedgehog pathway; assay: Hedgehog reporter assay (gli-luciferase) in S12 cells; assay type: cell-based; conditions: S12 mouse embryonic mesenchymal cells, read-out: S12 Avg. EC50
Structures can show the parent of a compound that is named as a salt.
Attribute measured: EC50

compound="CNC1CCC(N(Cc2cc(-c3ccccn3)ccc2OC)C(=O)c2sc3c(F)ccc(F)c3c2Cl)CC1 (stereo not drawn) [Compound 367, dihydrochloride]" attribute_measured=EC50 reported_result="< 0.05 µM"
compound="CNC1CCC(N(Cc2cc(-c3ccncc3)ccc2O)C(=O)c2sc3c(F)ccc(F)c3c2Cl)CC1 (stereo not drawn) [Compound 368, dihydrochloride]" attribute_measured=EC50 reported_result="< 0.05 µM"
compound="CNC1CCC(N(Cc2cc(-c3ccc(C(N)=O)cc3)ccc2OC)C(=O)c2sc3ccccc3c2Cl)CC1 (stereo not drawn) [Compound 316, hydrochloride]" attribute_measured=EC50 reported_result="< 0.05 µM"

---

system: sonic hedgehog pathway; experiment: Human hedgehog reporter assay Daoy-GliLuc (DGL); type: cell-based; conditions: Daoy human medulloblastoma cells, gli-luciferase reporter; read-out: Daoy Avg. EC50
Structures can show the parent of a compound that is named as a salt.
Attribute measured: EC50

compound="CNc1cc(-c2ccc(OC)c(CN(C(=O)c3sc4c(F)ccc(F)c4c3Cl)C3CCC(NC)CC3)c2)ccn1 (stereo not drawn) [Compound 357]" attribute_measured=EC50 reported_result="< 50 nM"
compound="CNC1CCC(N(Cc2cc(-c3ccc(N(C)C=O)cc3)ccc2OC)C(=O)c2sc3cccc(F)c3c2Cl)CC1 (stereo not drawn) [Compound 347]" attribute_measured=EC50 reported_result="< 50 nM"
compound="CN[C@H]1CC[C@@H](N(Cc2cc(-c3ccnc(C)c3)ccc2OC)C(=O)C2=C(Cl)c3c(F)ccc(C)c3C2)CC1 [Compound 345, dihydrochloride]" attribute_measured=EC50 reported_result="< 50 nM"
compound="CNC1CCC(N(Cc2cc(-c3ccccn3)ccc2OC)C(=O)c2sc3c(F)ccc(F)c3c2Cl)CC1 (stereo not drawn) [Compound 367, dihydrochloride]" attribute_measured=EC50 reported_result="< 50 nM"
compound="CCOc1ccc(-c2ccc(OC)cc2)cc1CN(C(=O)c1sc2ccccc2c1Cl)C1CCC(NC)CC1 (stereo not drawn) [Compound 312, hydrochloride]" attribute_measured=EC50 reported_result="50 to 250 nM"
compound="CNC(=O)c1cc(-c2ccc(OC)c(CN(C(=O)c3sc4c(F)ccc(F)c4c3Cl)C3CCC(NC)CC3)c2)ccn1 (stereo not drawn) [356 (R21), dihydrochloride]" attribute_measured=EC50 reported_result="< 50 nM"

---

test system: sonic hedgehog pathway; test: Hedgehog reporter assay (gli-luciferase) in TM3 cells; type: cell-based, mouse; settings: Mus musculus, Leydig, read-out: TM3 Avg. EC50
pEC50: −log10 of the molar value. Where a name gives a salt, the structure may show the parent alone.
Attribute measured: pEC50

molecule="CNC1CCC(N(Cc2cc(-c3ccc(S(C)(=O)=O)cc3)ccc2OC)C(=O)c2sc3ccccc3c2Cl)CC1 (stereo not shown) [Compound R7, hydrochloride]" target_under_test="sonic hedgehog pathway" reported_result="> 7.30"

---

system: sonic hedgehog pathway; test: Hedgehog reporter assay (gli-luciferase) in S12 cells; format: cell-based; conditions: S12 mouse embryonic mesenchymal cells, read-out: S12 Avg. EC50
Structures can show the parent of a compound that is named as a salt.
Attribute measured: EC50

compound="CNC1CCC(N(Cc2cc(-c3cccnc3)ccc2OC)C(=O)c2sc3cccc(F)c3c2Cl)CC1 (stereo not drawn) [360 (R16), dihydrochloride]" attribute_measured=EC50 reported_result="< 50 nM"
compound="CN[C@H]1CC[C@@H](N(Cc2cc(-c3ccc(N(C)C(C)=O)cc3)ccc2OC)C(=O)c2sc3c(C)ccc(C)c3c2C)CC1 [Compound 336, hydrochloride]" attribute_measured=EC50 reported_result="< 50 nM"
compound="CNC1CCC(N(Cc2cc(-c3ccccc3SC)ccc2OC)C(=O)c2sc3c(F)ccc(F)c3c2Cl)CC1 (stereo not drawn) [Compound 408, hydrochloride]" attribute_measured=EC50 reported_result="250 to 1000 nM"
compound="CNC1CCC(N(Cc2cc(-c3ccnc(C(N)=O)c3)ccc2OC)C(=O)c2sc3c(F)ccc(F)c3c2Cl)CC1 (stereo not drawn) [Compound 354 (R17), dihydrochloride]" attribute_measured=EC50 reported_result="< 50 nM"
compound=CN[C@H]1CC[C@@H](N(Cc2cc(-c3ccnc(C)c3)ccc2OC)C(=O)C2=C(Cl)c3c(C)ccc(F)c3C2)CC1 attribute_measured=EC50 reported_result="< 50 nM"
compound="CNc1cc(-c2ccc(OC)c(CN(C(=O)c3sc4c(F)ccc(F)c4c3Cl)C3CCC(NC)CC3)c2)ccn1 (stereo not drawn)" attribute_measured=EC50 reported_result="< 50 nM"

---

tested on: sonic hedgehog pathway; experiment: Human hedgehog reporter assay Daoy-GliLuc (DGL); assay type: cell-based; conditions: Daoy human medulloblastoma cells, gli-luciferase reporter; read-out: Daoy Avg. EC50
Structures can show the parent of a compound that is named as a salt.
Attribute measured: EC50

compound="CCOc1ccc(-c2ccc(C(F)(F)F)cc2)cc1CN(C(=O)c1sc2ccccc2c1Cl)C1CCC(NC)CC1 (stereo not drawn) [Compound 309, hydrochloride]" target_under_test="sonic hedgehog pathway" reported_result="< 50 nM"
compound="CN[C@H]1CC[C@@H](N(Cc2cc(-c3ccnc(N(C)C)c3)ccc2OC)C(=O)c2sc3c(C)ccc(C)c3c2Cl)CC1 [Compound 358, dihydrochloride]" target_under_test="sonic hedgehog pathway" reported_result="< 50 nM"
compound="CN[C@H]1CC[C@@H](N(Cc2cc(-c3ccc(N(C)C(C)=O)cc3)ccc2OC)C(=O)c2sc3c(C)ccc(C)c3c2C)CC1 [Compound 336, hydrochloride]" target_under_test="sonic hedgehog pathway" reported_result="< 50 nM"

---

pEC50 by entry:
test system: sonic hedgehog pathway; test: Human hedgehog reporter assay Daoy-GliLuc (DGL); format: cell-based; conditions: Daoy human medulloblastoma cells, gli-luciferase reporter; read-out: Daoy Avg. EC50
pEC50: −log10 of the molar value. Where a name gives a salt, the structure may show the parent alone.
Attribute measured: pEC50

compound="CNC1CCC(N(Cc2cc(-c3ccc(C(F)(F)F)cc3)ccc2OC)C(=O)c2sc3ccccc3c2Cl)CC1 (stereo not drawn) [Compound 306, trifluoroacetate]" reported_result="> 7.30"
compound="CCOc1ccc(-c2cncnc2)cc1CN(C(=O)c1sc2ccccc2c1Cl)C1CCC(NC)CC1 (stereo not drawn) [Compound 326, dihydrochloride]" reported_result="> 7.30"
compound="CNC1CCC(N(Cc2cc(-c3cc(C)cc(C)c3)ccc2OC)C(=O)C2=C(Cl)c3c(C)ccc(F)c3C2)CC1 (stereo not drawn) [Compound 350, dihydrochloride]" reported_result="> 7.30"
